Data credit: patent US7645757B2

Parameter melting point: see the listing below.

# example entries with known answers
CNC(=O)COC(=O)NCCCc1cc(-c2ccc(-c3ccccc3)cc2)no1 [Compound 30]	198 to 200 °C
CNC(=O)COC(=O)NCCCCn1ccc2cccnc21 [Compound 58]	52 to 54 °C
NC(=O)COC(=O)NCCCC#Cc1cccc2ccccc12 [Compound 71]	105 to 108 °C
CNC(=O)COC(=O)NCCc1ccc(-c2ccccc2)nc1 [Compound 3]	130 to 132 °C
CNC(=O)COC(=O)NCCCc1cc(-c2ccc(Cl)cc2)no1 [Compound 29]	158 to 160 °C

Requested field: melting point. Item: CNC(=O)COC(=O)NCCCCn1ccc2ccccc21 [Compound 56]
64 to 67 °C

What about this compound? NC(=O)COC(=O)NCCCCc1ccncc1 [Compound 37]
124 to 126 °C

How about CNC(=O)COC(=O)NCCCc1cc(-c2ccc(Cl)cc2)ncn1 [Compound 20] ?
147 to 149 °C
